Data credit: patent US20260138985A1

PROTOCOL TEXT: Metabolic stability in human liver microsomes
Type: in vitro ADME
ASSAY SETUP: pH 7.4, scaled from CLint(mic), values marked * average of two experiments
Some compounds, each annotated with its measured CLint scaled at 0.2 μM.
RECORDED ENDPOINT: CLint scaled at 0.2 μM (mL/min/kg)

>>> df
                                   compound  result_unit  measured_result
0  [2H]C([2H])([2H])Oc1ccc2c3c([nH]c2c1)CCNCC3 [Compound 163]    mL/min/kg             14.5
1  C[C@]12CC[C@H]3[C@@H](CCC4=CC(=O)CC[C@@]43C)[C@@H]1CC[C@@H]2O [Testosterone, reference compound]    mL/min/kg              103
2  [2H]C([2H])([2H])Oc1ccc2c3c([nH]c2c1)CCN(C)CC3 [Compound 1]    mL/min/kg             15.4
3  COc1ccc2c3c([nH]c2c1)CCNCC3 [reference compound]    mL/min/kg             11.4

###

PROTOCOL TEXT: Metabolic stability in human liver microsomes
Format: in vitro ADME
ASSAY SETUP: pH 7.4, scaled from CLint(mic), values marked * average of two experiments
RECORDED ENDPOINT: CLint scaled at 0.2 μM (mL/min/kg)

>>> print(df.to_string())
                                   compound       recorded_endpoint  measured_result
0  O=C(O)Cc1ccccc1Nc1c(Cl)cccc1Cl [Diclofenac, reference compound]  CLint scaled at 0.2 μM              182
1  [2H]C([2H])([2H])N1CCc2[nH]c3cc(OC)ccc3c2CC1  CLint scaled at 0.2 μM             14.9
2  [2H]C([2H])([2H])Oc1ccc2c3c([nH]c2c1)CCN(C([2H])([2H])[2H])CC3  CLint scaled at 0.2 μM             15.1
3  COc1ccc2c3c([nH]c2c1)CCN(C)CC3 [TBG, reference compound]  CLint scaled at 0.2 μM               14

###

TEST SYSTEM: 5-HT2C receptor (Homo sapiens)
Construct: host or cells: unnamed cell lines
Sequence (P28335 33-458): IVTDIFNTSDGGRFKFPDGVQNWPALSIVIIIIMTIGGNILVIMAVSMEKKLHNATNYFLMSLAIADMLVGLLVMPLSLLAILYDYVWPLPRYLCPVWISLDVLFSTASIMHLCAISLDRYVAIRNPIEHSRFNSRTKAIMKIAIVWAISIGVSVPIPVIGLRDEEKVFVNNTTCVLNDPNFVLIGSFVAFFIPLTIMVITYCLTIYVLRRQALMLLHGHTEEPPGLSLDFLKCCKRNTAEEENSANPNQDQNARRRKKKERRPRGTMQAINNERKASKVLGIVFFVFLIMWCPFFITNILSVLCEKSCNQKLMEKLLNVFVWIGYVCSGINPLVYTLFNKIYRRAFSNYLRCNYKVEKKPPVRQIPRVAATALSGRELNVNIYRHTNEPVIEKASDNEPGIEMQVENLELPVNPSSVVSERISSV
PROTOCOL TEXT: Calcium mobilization assay, antagonist format, 5-HT2C receptor
Format: cell-based
Design: dose or concentration left out as unconfirmed
Protocol: Protocol—in vitro testing at select 5-hydroxytryptamine (5-HT; serotonin) receptors was conducted. • 1. Cell lines were expanded from freezer stocks according to standard procedures. • 2. […] • 1. […] Compound antagonist activity was measured on a FLIPR Tetra (MDS). Calcium mobilization was monitored for 2 minutes and 10 μL EC80 agonist in HBSS/20 mM Hepes was added to the cells 5 seconds into the assay. • 1. Compound activity was analyzed using CBIS data analysis suite (ChemInnovation, CA). • 2. […]
Some compounds, each annotated with its measured inhibition.
RECORDED ENDPOINT: inhibition (%)

>>> df
                                    compound  measured_result
 0  CN1CCc2[nH]c3cc4c(cc3c2CC1)OCC4 [Compound 166]             97.9
 1  COc1ccc2c3c([nH]c2c1)CCN(C)CC3 [TBG, reference compound]             94.7
 2  COc1ccc2c3c([nH]c2c1)CCNCC3 [reference compound]             98.1
 3  CN1CCc2[nH]c3cccc(S(F)(F)(F)(F)F)c3c2CC1 [Compound 110]              103
 4  [2H]C([2H])([2H])Oc1ccc2c3c([nH]c2c1)CCNCC3 [Compound 163]             97.7
 5  Cc1cc2c(cc1Cl)N(C(=O)Nc1ccc(Oc3cccnc3C)nc1)CC2 [SB242084, reference compound]              101
 6  COc1ccc2c3c([nH]c2c1)CCN(CCS(C)(=O)=O)CC3 [Compound 143]             97.2
 7  CN1CCc2[nH]c3cccc(C#N)c3c2CC1 [Compound 138]              100
 8  [2H]C([2H])([2H])Oc1ccc2c3c([nH]c2c1)CCN(C1CC1)CC3 [Compound 146]              103
 9  [2H]C([2H])([2H])Oc1ccc2c3c([nH]c2c1)CCN(C)CC3 [Compound 1]             95.5
10  COc1ccc2c3c([nH]c2c1)CCN(CCN(C)C)CC3 [Compound 144]              3.1
11  CN1CCc2[nH]c3cc(C#N)ccc3c2CC1 [Compound 136]             98.6
12  [2H]C([2H])([2H])N1CCc2[nH]c3cc(OC)ccc3c2CC1 [Compound 2]             94.5
13  COc1ccc2c3c([nH]c2c1)CCN(CCO)CC3 [Compound 140]             93.8
14  [2H]C([2H])([2H])Oc1ccc2c3c([nH]c2c1)CCN(C([2H])([2H])[2H])CC3 [Compound 3]               95
15  CN1CCc2[nH]c3cc(OC4CC4)ccc3c2CC1 [Compound 117]             99.7
